Test: Corneal permeability rate constant (kin) across freshly excised bovine corneas in vitro; accession rate
Type: in vitro ADME
Conditions: excised bovine corneas, in vitro
measurement.name: kin (corneal permeability rate constant) (h⁻¹)
Give just the numeric value; h⁻¹ need not be written.

Please review the following examples before continuing.
compound	kin (corneal permeability rate constant), h⁻¹
NS(=O)(=O)c1nnc(N2C(=O)C=CC2=O)s1 [Example 3, Maleimidiazolamide]	0.0108
NS(=O)(=O)c1nnc(N2C(=O)C(O)C(O)C2=O)s1 (centres unmarked) [Example 4, Dihydroxysuccinimidazolamide]	3e-05
NS(=O)(=O)c1nnc(N2C(=O)CCC2=O)s1 [Example 2, Succinylimidazolamide]	0.0021

Lookup: Requested field: kin (corneal permeability rate constant). Item: CCOC(=O)CCC(=O)Nc1nnc(S(N)(=O)=O)s1 [Example 6, Ethylsuccinylazolamide]
Found: 0.0155

Lookup: Requested field: kin (corneal permeability rate constant). Item: CCOC(=O)CCCCC(=O)Nc1nnc(S(N)(=O)=O)s1
Found: 0.0512
